The reader will find reported Euclidean distance values listed item by item below.
- Tested on: HEPG2
- test name: Euclidean distance of Cell Painting phenotypic profile (signed KS, 77 features) to DMSO centroid (dimensionless distance); higher = stronger phenotypic change vs DMSO (phenoactivity)
- condition context: 48 h; 5 or 10 uM (library dependent)
Structures can show the parent of a compound that is named as a salt.

>  <compound>
O=C(O)CCCc1ccc(N(CCCl)CCCl)cc1

>  <Euclidean distance>
0.893

$$$$
>  <compound>
O=c1[nH]c2ccccc2n1C1CCN(CCCC(c2ccc(F)cc2)c2ccc(F)cc2)CC1 [Pimozide]

>  <Euclidean distance>
0.874

$$$$
>  <compound>
N#C[C@H](O[C@@H]1O[C@H](C(=O)O)[C@@H](O)[C@H](O)[C@H]1O)c1ccccc1

>  <Euclidean distance>
0.702

$$$$
>  <compound>
CC(C)[C@H](N)C(=O)N1CCC[C@H]1B(O)O

>  <Euclidean distance>
0.878

$$$$
>  <compound>
CNCC(=O)c1ccc(O)c(O)c1 [Adrenalone HCl]

>  <Euclidean distance>
0.892

$$$$

---

- Tested on: DU145
- test name: Euclidean distance of Cell Painting phenotypic profile (signed KS, 77 features) to DMSO centroid (dimensionless distance); higher = stronger phenotypic change vs DMSO (phenoactivity)
- condition context: 48 h; 5 or 10 uM (library dependent)
Counter-ions that a name gives are not always drawn.
metric: Euclidean distance

>  <molecule>
O=c1c2ccccc2[se]n1-c1ccccc1 [Ebselen]

>  <assay value>
1.01

$$$$
>  <molecule>
CN1[C@@H]2CC[C@H]1C[C@@H](OC(=O)C(CO)c1ccccc1)C2 (some centres not stated) [Atropine sulfate]

>  <assay value>
0.824

$$$$
>  <molecule>
NCC1(CC(=O)O)CCCCC1 [Gabapentin HCl]

>  <assay value>
0.806

$$$$
>  <molecule>
Cc1cc(SCc2sc(-c3ccc(C(F)(F)F)c(F)c3)nc2C)ccc1OCC(=O)O

>  <assay value>
0.823

$$$$
>  <molecule>
C[C@]12CC[C@H](O)C[C@@H]1CC[C@@H]1[C@@H]2CC[C@]2(C)C(=O)CC[C@@H]12 [Epiandrosterone]

>  <assay value>
0.784

$$$$
>  <molecule>
O=c1ccc2ccc3occc3c2o1 [Isopsoralen]

>  <assay value>
0.786

$$$$
>  <molecule>
CCCN1C[C@H](CSC)C[C@@H]2c3cccc4[nH]cc(c34)C[C@H]21 [Pergolide mesylate]

>  <assay value>
1.01

$$$$

---

- Tested on: 786-O
- test name: Euclidean distance of Cell Painting phenotypic profile (signed KS, 77 features) to DMSO centroid (dimensionless distance); higher = stronger phenotypic change vs DMSO (phenoactivity)
- condition context: 48 h; 5 or 10 uM (library dependent)
Counter-ions that a name gives are not always drawn.
If the reported Euclidean distance equals or exceeds 1, assign rule met. If not, assign rule not met.

>  <molecule>
CC(O)(CS(=O)(=O)c1ccc(F)cc1)C(=O)Nc1ccc(C#N)c(C(F)(F)F)c1 (centres undefined) [Bicalutamide]

>  <classification>
rule met

$$$$
>  <molecule>
CC(C)C(Br)C(=O)NC(N)=O (centres undefined)

>  <classification>
rule met

$$$$
>  <molecule>
C#C[C@]1(OC(=O)CCCCCC)CC[C@H]2[C@@H]3CCC4=CC(=O)CC[C@@H]4[C@H]3CC[C@@]21C [Norethisterone Enanthate]

>  <classification>
rule met

$$$$
>  <molecule>
C/C(=C\c1csc(C)n1)[C@@H]1C[C@@H]2O[C@@H]2CCC[C@H](C)[C@H](O)[C@@H](C)C(=O)C(C)(C)[C@@H](O)CC(=O)O1

>  <classification>
rule met

$$$$
>  <molecule>
COc1ccc2c(c1)[C@]13CCCC[C@@H]1[C@H](C2)N(C)CC3 [Dextromethorphan hydrobromide hydrate]

>  <classification>
rule met

$$$$
>  <molecule>
O=C(C[S+]([O-])C(c1ccccc1)c1ccccc1)NO (centres undefined)

>  <classification>
rule met

$$$$
>  <molecule>
COc1cc([C@@H]2c3cc4c(cc3[C@H](O)[C@H]3COC(=O)[C@@H]23)OCO4)cc(OC)c1OC

>  <classification>
rule met

$$$$
>  <molecule>
CCC(COC(=O)c1cc(OC)c(OC)c(OC)c1)(c1ccccc1)N(C)C (centres undefined)

>  <classification>
rule not met

$$$$
>  <molecule>
CC[C@@]1(O)C(=O)OCc2c1cc1n(c2=O)Cc2cc3ccccc3nc2-1

>  <classification>
rule met

$$$$
>  <molecule>
CCN1C[C@]2(OC(=O)c3ccccc3NC(C)=O)CC[C@H](OC)[C@@]34[C@@H]2C[C@@H]([C@@H]13)[C@@]1(O)C[C@H](OC)[C@H]2C[C@@H]4[C@]1(O)[C@H]2OC

>  <classification>
rule not met

$$$$
>  <molecule>
Cc1ccccc1-n1c(CF)nc2ccc(N)cc2c1=O

>  <classification>
rule not met

$$$$
>  <molecule>
C=CCC(C(=O)NC(N)=O)C(C)C (centres undefined)

>  <classification>
rule met

$$$$
>  <molecule>
Cc1cc(C(C#N)c2ccc(Cl)cc2)c(Cl)cc1NC(=O)c1cc(I)cc(I)c1O (centres undefined)

>  <classification>
rule met

$$$$
